Each entry below carries its measured IC50, system: Protein kinase C beta type (Homo sapiens).
Sequence (P05771 whole entry): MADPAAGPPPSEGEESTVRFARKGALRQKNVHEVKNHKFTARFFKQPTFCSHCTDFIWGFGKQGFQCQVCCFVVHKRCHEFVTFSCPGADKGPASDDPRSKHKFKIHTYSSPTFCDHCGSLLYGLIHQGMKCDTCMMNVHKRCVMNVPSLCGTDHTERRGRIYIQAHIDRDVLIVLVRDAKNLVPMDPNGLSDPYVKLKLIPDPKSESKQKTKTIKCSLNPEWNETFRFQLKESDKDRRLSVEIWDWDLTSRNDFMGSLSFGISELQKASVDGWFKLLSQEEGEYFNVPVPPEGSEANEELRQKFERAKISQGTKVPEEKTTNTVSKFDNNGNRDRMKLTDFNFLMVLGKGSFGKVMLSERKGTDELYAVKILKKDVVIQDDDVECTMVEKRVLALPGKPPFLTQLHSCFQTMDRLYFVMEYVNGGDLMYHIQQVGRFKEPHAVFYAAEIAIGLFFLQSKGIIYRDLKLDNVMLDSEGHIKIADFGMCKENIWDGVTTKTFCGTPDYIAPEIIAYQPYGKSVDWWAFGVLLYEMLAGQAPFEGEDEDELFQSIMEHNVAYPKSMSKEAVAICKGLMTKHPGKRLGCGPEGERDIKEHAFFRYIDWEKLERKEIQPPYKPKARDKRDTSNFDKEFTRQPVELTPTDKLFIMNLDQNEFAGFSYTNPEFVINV
quantity_kind: IC50

CN(C)CCNc1cncc(-c2cncc(Nc3cccc(Cl)c3)n2)c1 > 10 µM
OCCCCNc1cncc(-c2cncc(Nc3cccc(Cl)c3)n2)c1 > 10 µM

---

Target: Casein kinase II (Homo sapiens, UniProt P19784+P67870+P68400)
Sequence (P67870 whole entry): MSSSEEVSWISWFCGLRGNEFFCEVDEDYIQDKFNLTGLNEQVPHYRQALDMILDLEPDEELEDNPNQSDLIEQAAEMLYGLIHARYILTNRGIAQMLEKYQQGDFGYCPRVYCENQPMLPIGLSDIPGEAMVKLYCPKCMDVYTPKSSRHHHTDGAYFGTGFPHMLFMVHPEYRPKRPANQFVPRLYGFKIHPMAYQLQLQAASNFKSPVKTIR
Sequence (P68400 whole entry): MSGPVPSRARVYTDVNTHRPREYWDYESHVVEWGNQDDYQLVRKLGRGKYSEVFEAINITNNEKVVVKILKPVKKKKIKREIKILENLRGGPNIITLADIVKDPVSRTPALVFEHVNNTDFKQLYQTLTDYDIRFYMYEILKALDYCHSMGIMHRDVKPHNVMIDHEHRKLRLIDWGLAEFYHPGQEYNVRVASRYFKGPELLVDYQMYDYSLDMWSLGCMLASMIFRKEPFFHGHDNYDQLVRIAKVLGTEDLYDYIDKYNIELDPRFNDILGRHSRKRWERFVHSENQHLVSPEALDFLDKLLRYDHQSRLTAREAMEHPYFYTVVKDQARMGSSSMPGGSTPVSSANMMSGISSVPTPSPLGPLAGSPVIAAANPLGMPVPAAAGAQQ
Sequence (P19784 whole entry): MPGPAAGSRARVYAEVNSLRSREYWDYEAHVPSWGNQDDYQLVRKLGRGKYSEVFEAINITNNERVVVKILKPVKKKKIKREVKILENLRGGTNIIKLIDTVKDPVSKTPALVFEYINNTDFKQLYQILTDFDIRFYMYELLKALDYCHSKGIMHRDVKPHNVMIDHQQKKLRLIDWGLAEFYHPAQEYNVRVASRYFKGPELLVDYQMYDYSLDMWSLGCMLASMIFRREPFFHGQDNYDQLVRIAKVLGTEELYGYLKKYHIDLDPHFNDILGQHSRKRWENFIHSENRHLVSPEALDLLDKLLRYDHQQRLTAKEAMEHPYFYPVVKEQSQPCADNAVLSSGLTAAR
Experiment: Inhibition of casein kinase 2
Item-by-item account of IC50
quantity_kind: IC50 (µM)

Clc1cccc(Nc2cncc(-c3cncc(NCCCn4cncn4)c3)n2)c1 7.2
Clc1cccc(Nc2cncc(-c3cncc(NCCCn4cccn4)c3)n2)c1 8.1

---

Molecular target: UniProt:P35968
Sequence (P35968 whole entry): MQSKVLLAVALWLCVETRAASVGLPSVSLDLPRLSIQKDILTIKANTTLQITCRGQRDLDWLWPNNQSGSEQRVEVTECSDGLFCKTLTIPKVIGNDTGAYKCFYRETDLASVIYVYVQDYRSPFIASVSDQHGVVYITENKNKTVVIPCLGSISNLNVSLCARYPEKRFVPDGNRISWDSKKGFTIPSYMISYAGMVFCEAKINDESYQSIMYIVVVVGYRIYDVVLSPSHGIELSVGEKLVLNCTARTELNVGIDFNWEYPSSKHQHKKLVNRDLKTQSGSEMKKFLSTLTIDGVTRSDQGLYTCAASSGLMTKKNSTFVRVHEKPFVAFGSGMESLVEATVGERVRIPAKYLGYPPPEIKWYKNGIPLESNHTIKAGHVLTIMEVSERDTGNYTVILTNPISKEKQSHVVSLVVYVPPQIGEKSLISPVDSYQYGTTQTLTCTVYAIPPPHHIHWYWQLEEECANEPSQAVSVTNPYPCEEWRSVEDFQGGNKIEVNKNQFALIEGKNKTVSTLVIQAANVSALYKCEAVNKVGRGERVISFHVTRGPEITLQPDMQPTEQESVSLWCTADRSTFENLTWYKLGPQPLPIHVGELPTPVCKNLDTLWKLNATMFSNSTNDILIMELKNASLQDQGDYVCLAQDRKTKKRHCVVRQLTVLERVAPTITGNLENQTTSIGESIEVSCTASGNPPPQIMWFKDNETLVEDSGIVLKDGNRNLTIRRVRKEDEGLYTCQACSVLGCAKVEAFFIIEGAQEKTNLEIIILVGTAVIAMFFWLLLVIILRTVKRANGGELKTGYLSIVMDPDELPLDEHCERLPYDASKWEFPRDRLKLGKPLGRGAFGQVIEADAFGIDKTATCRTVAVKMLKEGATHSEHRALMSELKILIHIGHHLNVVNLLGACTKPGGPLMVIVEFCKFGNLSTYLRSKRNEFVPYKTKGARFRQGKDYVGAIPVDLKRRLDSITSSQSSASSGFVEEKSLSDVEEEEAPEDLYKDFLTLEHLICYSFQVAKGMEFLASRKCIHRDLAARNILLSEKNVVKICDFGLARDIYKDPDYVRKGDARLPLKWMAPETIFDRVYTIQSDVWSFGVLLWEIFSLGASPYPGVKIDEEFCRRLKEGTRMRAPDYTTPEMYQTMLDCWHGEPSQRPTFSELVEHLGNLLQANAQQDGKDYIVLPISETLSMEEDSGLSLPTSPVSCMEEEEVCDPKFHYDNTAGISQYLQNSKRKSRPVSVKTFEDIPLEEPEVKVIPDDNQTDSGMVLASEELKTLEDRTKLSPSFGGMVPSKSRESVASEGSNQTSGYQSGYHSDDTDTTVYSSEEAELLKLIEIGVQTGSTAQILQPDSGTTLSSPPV
Test: Inhibitory concentration (experimental) against vascular endothelial growth factor receptor 2
Item-by-item account of IC50
quantity_kind: IC50

Clc1cccc(Nc2cncc(-c3cncc(NCCCn4cccn4)c3)n2)c1 93.3 nM
Clc1cccc(Nc2cncc(-c3cncc(NCCCc4ccncc4)c3)n2)c1 75.9 nM
Clc1ccc(Nc2cncc(-c3cncc(NCCCc4ccncc4)c3)n2)cc1 1000 nM
Nc1cncc(-c2cncc(Nc3cccc(Cl)c3)n2)c1 1150 nM
OCCCNc1cnc(F)c(-c2cncc(Nc3cccc(Cl)c3)n2)c1 251 nM
OCCCNc1cncc(-c2cncc(Nc3cccc(F)c3)n2)c1 170 nM
COc1cccc(Nc2cncc(-c3cncc(NCCCO)c3)n2)c1 741 nM
OCCNc1cncc(-c2cncc(Nc3cccc(Cl)c3)n2)c1 275 nM
CN(C)CCCNc1cncc(-c2cncc(Nc3cccc(Cl)c3)n2)c1 135 nM
Clc1cccc(Nc2cncc(-c3cncc(NCCCCc4ccncc4)c3)n2)c1 263 nM
OCCCNc1cncc(-c2cncc(Nc3ccccc3Cl)n2)c1 1000 nM

Entry source: ChEMBL document CHEMBL1140334
